Taken from ChEMBL document CHEMBL4138146.

Test system: A549
test-details: Growth inhibition of human A549/ATCC cells assessed as cell growth at 10 uM incubated for 48 hrs by sulforhodamine B assay relative to control
Type: functional
condition-label: A549, 48 h, read-out: Activity
measure-name: growth at 10 µM

(Q) Give me measured growth at 10 µM, please, for this compound: CCCCOc1nc2ccccc2cc1C1CNC(=O)c2ccccc2N1 (stereo unspecified)
(A) 19.9%

(Q) In one line, give reported growth at 10 µM of the entry Cc1ccc2[nH]c(=O)c(C3CNC(=O)c4ccccc4N3)cc2c1 (stereo unspecified) .
(A) 95.7%

(Q) For O=C1NCC(c2cc3ccccc3[nH]c2=O)Nc2ccccc21 (stereo unspecified) , write its growth at 10 µM.
(A) 92.4%

(Q) Recall and state the measured growth at 10 µM for O=C1NCC(c2cc3ccc(Cl)cc3[nH]c2=O)Nc2ccccc21 (stereo unspecified) .
(A) 73.9%

(Q) Recall and state the measured growth at 10 µM for CCCCn1c(=O)c(C2CNC(=O)c3ccccc3N2)cc2ccc(Cl)cc21 (stereo unspecified) .
(A) 92.6%

(Q) Give growth at 10 µM for the following compound: O=C1NCC(c2cc3ccc4ccccc4c3[nH]c2=O)Nc2ccccc21 (stereo unspecified)
(A) 82.4%
